These entries and their values trace back to PubChem BioAssay (NCI).

// growth lookup, one value per entry
system: UO-31 renal; assay: NCI-60 one-dose screen, 48 h (100 = growth as untreated, 0 = no growth, -100 = all killed); settings: 10 µM
About 83,000 compounds went through this panel and 20% of them were active in at least one assay; those are over-represented in the sample as a whole. The source made the active and inactive calls. The calls were made as follows: active = growth percent below 10; inactive = the rest.

Reference set, count: 5
{"columns": ["compound", "growth"],
 "data": [
  ["OC1OC(COC(c2ccccc2)(c2ccccc2)c2ccccc2)C(O)C(O)C1O (stereo unspecified)", "76.7% (inactive)"],
  ["CCOC(=O)C/C(C)=N\\O", "81.6% (inactive)"],
  ["O=[N+]([O-])c1ccc(Sc2ccncn2)c([N+](=O)[O-])c1", "51.1% (inactive)"],
  ["COc1cc2cc(OC(C)=O)c3cc4c(cc3c2c(OC)c1OC)OCO4", "89% (inactive)"],
  ["O=C(c1ccc(O)cc1)c1ccc(O)cc1", "85% (inactive)"]
]}

Need growth, item `CCCCC1C(=O)N(c2ccccc2)N(c2ccccc2)C1=O`
90.4% (inactive)

Need growth, item `O=C(N/N=C/c1ccccc1O)Nc1nn[nH]n1`
90.2% (inactive)

Need growth, item C=CC(O)CCC (stereo unspecified)
89.9% (inactive)

Need growth, item `N#Cc1c(N)sc(=S)c2c1CCCC2`
91.6% (inactive)

Need growth, item `COC(=O)c1ccc(C(C)C)cc1`
97.4% (inactive)

Need growth, item `C#Cc1cccc(NC(=O)c2ccc(Cl)cc2Cl)c1`
91.7% (inactive)

Need growth, item `Cc1cccc(CO)c1`
92.9% (inactive)
